# System: NHERF4_1, Q86UT5-2
# Sequence (Q86UT5 other isoform, or with tags, fused parts or gaps): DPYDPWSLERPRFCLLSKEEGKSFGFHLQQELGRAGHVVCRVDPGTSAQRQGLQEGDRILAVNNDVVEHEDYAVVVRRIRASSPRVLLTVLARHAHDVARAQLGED
# Test Summary: holdup assay
# Set-up: key: below the threshold = too weak to quantify, mostly under pKd 3.1 to 4
# Condition Info: plain residues with an end cap or a label only (N-terminal biotin on a linker: ado-ado)
Outcome Measure: pKd

Name the reported pKd value associated with the binder PDSYHRRDFW [U2AF2, P26368]
below the threshold

What value of pKd has been recorded for this entry: GVHSNDHSVV [LPAR1, Q92633]
below the threshold

Data request, read-out pKd, for KSRPENGTVC [TMEM178B, H3BS89]
below the threshold

// pKd lookup, key: HLSTRQGTCV [ATRNL1, Q5VV63]
below the threshold

Need pKd of QRYPGNQTTC [CCL24, O00175] , thanks.
below the threshold

Further cases:
Suppose we examine the binder PSVYSRSQYV [CLDN8, P56748] ; what pKd value has been reported?
4.03

So what does the record say about pKd for KAEEKPPSKV [SCN4B, Q8IWT1] ?
below the threshold
